Data origin, for the record: patent US20120095193A1

# tested.on: Human MMP9 (human, UniProt P14780 20-707, limits assumed)
# Sequence (P14780 20-707 limits assumed): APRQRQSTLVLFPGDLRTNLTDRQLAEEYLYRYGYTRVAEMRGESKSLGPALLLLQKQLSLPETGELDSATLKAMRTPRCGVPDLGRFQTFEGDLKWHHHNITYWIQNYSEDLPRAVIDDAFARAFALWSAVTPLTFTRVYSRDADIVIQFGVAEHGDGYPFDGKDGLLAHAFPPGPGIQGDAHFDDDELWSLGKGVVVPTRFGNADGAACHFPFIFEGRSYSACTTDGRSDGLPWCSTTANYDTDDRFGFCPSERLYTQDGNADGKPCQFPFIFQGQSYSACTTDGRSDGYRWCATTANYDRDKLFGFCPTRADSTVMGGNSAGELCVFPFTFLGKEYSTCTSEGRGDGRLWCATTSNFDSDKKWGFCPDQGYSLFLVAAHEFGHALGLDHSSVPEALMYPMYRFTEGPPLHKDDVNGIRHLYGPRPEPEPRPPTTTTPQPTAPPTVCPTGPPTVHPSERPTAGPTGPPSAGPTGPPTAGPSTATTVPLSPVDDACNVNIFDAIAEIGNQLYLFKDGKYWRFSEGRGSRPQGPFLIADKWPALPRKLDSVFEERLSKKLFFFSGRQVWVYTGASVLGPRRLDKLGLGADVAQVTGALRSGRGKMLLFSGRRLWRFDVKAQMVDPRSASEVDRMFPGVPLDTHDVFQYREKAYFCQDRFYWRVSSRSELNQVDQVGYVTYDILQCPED
# test.method.notes: celTRF and Octet QK cross-reactivity

- binder: "3A12.1D7 (antibody, V domains shown, Murine monoclonal antibody from a hybridoma) VH: EVKFEESGGGLVQPGGSMKLSCAASGFIFSDAWMDWVRQSPEKGLEWVAEIRHKANDYAIFYDESVKGRFTISRDDSKSIVYLQMNNLRPEDTGIYYCTSPFAYWGQGTLVTVSA VL: DIVMTQSQKFMSVTVGDRVSITCKASQSVGTTIVWYQQKPGQSPKLLIYSASNRHTGVPDRFTGSGSGTDFILTISNVQSEDLADYFCQQYSSYPFTFGSGTKLEIKR"
  binding result: "no binding"
- binder: "2D3.1D4 (antibody, V domains shown, Murine monoclonal antibody from a hybridoma) VH: EVKLEESGGGLVQPGGSMKLSCAASGITFSDAWMDWVRQSPEKGLEWVADIRNTANNHATFYAESVKGRFTISRDDSKSTVYLQMNTLRPEDTGIYYCTSPFAYWGQGTLVTVSA VL: DIVMTQSQKFMSTTVGDRVSITCKASQNVGTAVVWFQQKPGQSPKLLIYSASNRYTRVPDRFTGSGSGTDFTLTISNVQSEDLADYFCQQYVNYPFTFGSGTKLEIKR"
  binding result: "no binding"
- binder: "7B4.1E11 (antibody, IgG1, V domains shown, also called Murine 7B4.1E11) VH: EVKLEESGGGLVQPGGSMKLSCAASGFTSSDAWMDWVRQSPEKGLEWVAEIRNKANNHARHYAESVKGRFTISRDDSKSSVYLQMNSLRAEDSGIYYCTRTYYYGSSYGYCDVWGTGTTVTVSS VL: DIQMTQSPASLSASVGETVTITCRTSENIYSYLAWYQQKQGKSPQLLVYNAKTLAEGVPSRFSGSGSGTQFSLKINSLQPEDFGSYSCQHHYGTPWTFGGGTKLEIKR"
  binding result: "no binding"
